The reported measurements were obtained from the RNAGym collection of RNA variant scans (doi:10.1126/science.aae0568).

B1: tRNA (parent)
chain: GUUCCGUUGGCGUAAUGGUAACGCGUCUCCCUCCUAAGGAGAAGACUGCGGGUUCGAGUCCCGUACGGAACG

- Variants of: B1
- Measurement Description: yeast fitness relative to wild type (ratio to wild type); higher = fitter; tRNA-Arg(CCU), competitive growth, 37 C, YPD
Fewer inactive variants are shown than the library holds.
Property: yeast fitness
Numbers only.

Here are 6 variants together with their reported answers.
INSERT INTO assay_data (variant_spec, property, recorded_value) VALUES
  ('C27A C30G A42C C61G', 'yeast fitness', 1.01),
  ('U26C C31U C49G', 'yeast fitness', 0.622),
  ('G9C G41C', 'yeast fitness', 0.575),
  ('C4G C66A', 'yeast fitness', 0.61),
  ('A14C C30U', 'yeast fitness', 0.622),
  ('U8C C11U C27A C30G C46U U47A', 'yeast fitness', 0.603);

Dear reader, for each entry below, please note its yeast fitness.
1. C11A U16C G18C A45C A57C G68C
2. U35C G68U
3. C5U A20C A36G G52C
4. C60A C66G
5. U16G G63A
6. U13A G18A A69U
7. C49G G52C

result:
[0.546, 0.657, 0.567, 0.773, 0.937, 0.618, 0.664]
